# ASSAY PROTOCOL: protease stability score; higher = more stable; yeast display proteolysis, trypsin and chymotrypsin;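 note: relative to predicted unfolded state with 0 unfolded-like and 1 meaning tenfold more protease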
Measured protease stability score of individual entries
Number, no unit, nothing else.

input: Quick one: protease stability score of DEDHERSEIASKITYKIIETGNEDLFSHFADPNTRLHVNGVDSVGMEDVIKVHRKLWKDLGVDHFILHDQKVDVVDGVAEVRLDTRLRFNGREFETEVRFLVLKFNGRWWIRMIEFRVI ?
output: 0.968

input: Request: NEEEHKLEEEFERLMHLLLTGDEEKLHRLADPNVKVNVNGKDLHGMELFFHVWWEELKRYDYWHITIRHIDSQGNKADSEVELNLVFNGKEIRIDSRMHLEVVNGRIKRIEIRPI
output: 1.63

Continuing:
input: Quick one: protease stability score of DEHTDMTRRLAELFRHLIETGNWKELTKLADPNMRLEVGDKEMHGREKLAELWRRIKNVRISIRRVEVQGEKVHLDLELDVDGQRQKFSEHIDIVDGVMRDVNVQWE ?
output: 2.12

Attribution: the NTF2 design screens of Basanta et al. (2020)
